We begin with IC50 values for Prothrombin (Homo sapiens, UniProt P00734), as collected from the published literature.

The examples below pair each entry with its known result.
>>> observed_result("N=C(N)N1CCC(CNC(=O)Cn2c(CCc3ccccc3)ccc(NS(=O)(=O)Cc3ccccc3)c2=O)CC1")
"0.5 µM"
>>> observed_result("N=C(N)c1ccc2cc(OC(=O)c3ccc(S(N)(=O)=O)cc3)ccc2c1")
"2 µM"
>>> observed_result("CN1CCN(C(=O)[C@H](CNC(=O)c2ccc(Cl)s2)NS(=O)(=O)c2cccc(N3CCCC3=O)c2C(F)F)CC1")
"0.028 µM"
>>> observed_result("COc1ccccc1C(=O)n1nc(C2CCCN2C(=O)C(C)(C)C)cc1NCc1ccc(Cl)s1 (stereo not shown)")
"0.1 to 1 µM"
>>> observed_result("NCCCCC(NC(=O)[C@@H]1CCCN1C(=O)[C@@H](Cc1ccc(Cl)cc1)NCC(=O)O)C(=O)c1nccs1 (stereo partly shown)")
"5.1 µM"
>>> observed_result("O=C(Cn1ccc(-c2cc(NCc3ccc(Cl)s3)n(C(=O)c3ccsc3)n2)cc1=O)N1CCOCC1")
"0.1 to 1 µM"
>>> observed_result("O=C(c1ccc(S(=O)(=O)c2ccc3cc(Cl)ccc3c2)cc1)N1CCN(c2ccncc2)CC1")
"> 40 µM"
>>> observed_result("O=C1CCCN1c1ccc(-c2nn(C(=O)c3ccoc3)c(NCc3ccc(Cl)s3)c2F)cc1")
"> 1 µM"
>>> observed_result("COc1ccccc1C(=O)n1nc(C2CCCNC2)cc1NCc1ccc(Cl)s1 (stereo not shown)")
"0.1 to 1 µM"
>>> observed_result("CN1CCCC[C@@H]1C(=O)N[C@@H](Cc1ccc(F)cc1)C(=O)NCc1ccc(N)nc1")
"> 10 µM"

Query :: Quick check: IC50 on Prothrombin (Homo sapiens, UniProt P00734), item COc1ccccc1C(=O)n1nc(C2CN(S(=O)(=O)C(C)C)C2)nc1NCc1ccc(Cl)s1 ?
Result :: ≤ 0.1 µM

Query :: Quick check: IC50 on Prothrombin (Homo sapiens, UniProt P00734), item CC(C)(C)C(=O)n1nc(-c2cc(-c3ccccc3)c[nH]c2=O)cc1NCc1ccc(Cl)s1 ?
Result :: < 0.1 µM

Query :: Quick check: IC50 on Prothrombin (Homo sapiens, UniProt P00734), item COc1ccccc1C(=O)n1nc(-c2ccc(N3CCCC3=O)cc2)c(F)c1NCc1ccc(Cl)s1 ?
Result :: < 0.1 µM

Query :: Quick check: IC50 on Prothrombin (Homo sapiens, UniProt P00734), item CCn1c(Cn2c(=O)ccc3cc(OC4CCN(C(C)=N)CC4)ccc32)cc2ccc(C(=N)N)cc21 ?
Result :: 0.0693 µM

Query :: Quick check: IC50 on Prothrombin (Homo sapiens, UniProt P00734), item CCn1c(CC[C@@H]2CCCN2C(=O)[C@H]2CCCN2CC(=O)NC2CC2)cc2ccc(C(=N)N)cc21 ?
Result :: 0.0318 µM

Query :: Quick check: IC50 on Prothrombin (Homo sapiens, UniProt P00734), item COCC(C)(C)C(=O)n1nc(C2CCCN(C(=O)OC(C)(C)C)C2)cc1NCc1ccc(Cl)s1 (stereo not shown) ?
Result :: < 0.1 µM

----------
We begin with log10 IC50 values for UniProtKB P00734, as collected from the published literature.
In plain terms, each number is the log10 of measured IC50 in µM.

The examples below pair each entry with its known result.
>>> observed_result("N=C(N)c1ccc2ccc(CN3c4ccc(OC5CCN(C(=N)N)CC5)cc4C=CS3(=O)=O)cc2c1")
1.22
>>> observed_result("CCn1c(CC[C@@H]2CCCN2C(=O)[C@H]2CCCN2CC(N)=O)cc2ccc(C(=N)N)cc21")
-1.76
>>> observed_result("CC(C)(C)OC(=O)C(Cc1cccc(C(=N)N)c1)N1CCc2cc(OC3CCN(C(=N)N)CC3)ccc2C1=O (centres unmarked)")
2.37

Query :: Using the record for CCOC(=O)CC(=O)N1CCC[C@@H]1C(=O)N1CCC[C@H]1CCc1cc2ccc(C(=N)N)cc2n1CC , report its log10 IC50.
Result :: -1.79

Query :: Using the record for N=C(N)c1cc2ccc(OC(=O)c3ccco3)cc2s1 , report its log10 IC50.
Result :: -1.36

Query :: Using the record for NCC#CCC(NC(=O)C1CCCN1C(=O)C1NCCC2CCCCC21)C(=O)c1nccs1 (centres unmarked) , report its log10 IC50.
Result :: 0.67

----------
We begin with pIC50 values for Prothrombin (Homo sapiens, UniProt P00734), as collected from the published literature.
pIC50: −log10 of the molar value.

The examples below pair each entry with its known result.
>>> observed_result("O=C(c1ccsc1)n1nc(-c2cc(-c3ccccc3)[nH]c(=O)c2)cc1NCc1ccc(Cl)s1")
"< 4.00"
>>> observed_result("COCC(C)(C)C(=O)n1nc(C2CCOCC2)c(F)c1NCc1ccc(Cl)s1")
"> 7.00"
>>> observed_result("CCC(C)[C@@H](NC)C(=O)N[C@@H](Cc1ccc(Cl)c(Cl)c1)C(=O)NCc1ccc(N)nc1 (stereo partly shown)")
"< 5.00"
>>> observed_result("N=C(N)NCCCCCNC(=O)Cc1c(F)ccc(NS(=O)(=O)Cc2ccccc2)c1F")
"< 4.52"
>>> observed_result("CCN(CC)[C@@H](C)C(=O)N[C@@H](CC1CCCCC1)C(=O)NCc1ccc(N)nc1")
"< 5.00"
>>> observed_result("C=Cc1ccc(-c2cc(NCc3ccc(Cl)s3)n(C(=O)C(C)(C)C)n2)[nH]c1=O")
"> 7.00"

Query :: Using the record for CCn1c(CC[C@@H]2CCCN2C(=O)[C@H]2CCCN2C(=O)[C@H](C)N)cc2ccc(C(=N)N)cc21 , report its pIC50.
Result :: 8.26

Query :: Using the record for COC(C)(C)C(=O)n1nc(-c2ccccc2)c(F)c1NCc1ccc(Cl)s1 , report its pIC50.
Result :: > 7.00

Query :: Using the record for CC(=O)N1CCC[C@@H]1C(=O)N1CCC[C@H]1CCc1cc2ccc(C(=N)N)cc2n1C , report its pIC50.
Result :: 7.47

Query :: Using the record for CC(=O)c1cccc(-c2ccc(NC(C)C)[n+]([O-])c2CC(=O)NCc2ccc(C(=N)N)cc2)c1 , report its pIC50.
Result :: 5.52

----------
We begin with pIC50 values for Prothrombin (Homo sapiens, UniProt P00734), as collected from the published literature.
pIC50: −log10 of the molar value.

>>> observed_result("CCn1c(CC[C@@H]2CCCN2C(=O)[C@H]2CCCN2C(=O)[C@H](C)NS(C)(=O)=O)cc2ccc(C(=N)N)cc21")
7.66
>>> observed_result("CC(C)(C)C(=O)n1nc(-c2ccc3c(c2)CCCC3=O)c(F)c1NCc1ccc(Cl)s1")
"> 7.00"

Query :: Using the record for CS(=O)(=O)N1C2CCC1CC(c1cc(NCc3ccc(Cl)s3)n(C(=O)c3cscn3)n1)C2 (stereo not shown) , report its pIC50.
Result :: > 7.00

Query :: Using the record for COc1ccccc1C(=O)n1nc(C2CCN(S(C)(=O)=O)CC2)nc1NCc1ccc(Cl)s1 , report its pIC50.
Result :: ≥ 7.00

Query :: Using the record for CC(C)Nc1nc(Cl)c(-c2cc(N)cc(C(=O)NC3CCCCCC3)c2)n(CC(=O)NCc2ccc(C(=N)N)cc2)c1=O , report its pIC50.
Result :: 4.69

Query :: Using the record for Clc1ccc(CNc2cc(C3CCN(CCc4ccccn4)CC3)n[nH]2)s1 , report its pIC50.
Result :: < 4.00

Query :: Using the record for C=CCOC(=O)N1CCC(c2nn(C(=O)C(C)(C)C)c(NCc3ccc(Cl)s3)c2C)CC1 , report its pIC50.
Result :: > 7.00

----------
We begin with pIC50 values for Prothrombin (Homo sapiens, UniProt P00734), as collected from the published literature.
Friendly reminder that pIC50 comes from taking -log10 of the concentration in mol/L.

Query :: Quick check: pIC50 on Prothrombin (Homo sapiens, UniProt P00734), item COc1ccc2[nH]c(C)c(CC(=O)Oc3ccc(C(=O)OCCN4CCN(CCN5CCOCC5)CC4)cc3)c2c1 ?
Result :: 4.00

Query :: Quick check: pIC50 on Prothrombin (Homo sapiens, UniProt P00734), item Nc1nccc2cc(OCCC3CCCCN3C(=O)C(CC3CCCCC3)NCC(=O)Nc3ccccc3)ccc12 (stereo not shown) ?
Result :: 5.87

Query :: Quick check: pIC50 on Prothrombin (Homo sapiens, UniProt P00734), item N=C(N)c1cc2cc(OC(=O)c3cccs3)ccc2o1 ?
Result :: 6.91

Query :: Quick check: pIC50 on Prothrombin (Homo sapiens, UniProt P00734), item CCOC(=O)C(C)N1CCC[C@@H]1C(=O)N1CCC[C@H]1CCc1cc2ccc(C(=N)N)cc2n1CC (stereo partly shown) ?
Result :: 7.50
